system: alachlor antibodies; experiment: inhibition ELISA for alachlor (cross-reactivity studies); type: binding, rabbit; settings: IC50 of alachlor divided by IC50 of analog x 100; bleed not stated
property label: percent cross-reactivity (%)
Field: numeric (%). Do not append units.

# molecule, percent cross-reactivity (%)
measured = [
    ("CCc1cccc(CC)c1N(COC)C(=O)CS(C)(=O)=O [sulfone analog]", 9),
    ("CCc1cccc(CC)c1N(COC)C(=O)CSCC(NC(C)=O)C(=O)OC (stereo not drawn) [methyl ester of the mercapturate]", 89.7),
    ("CCc1cccc(CC)c1N(COC)C(=O)CCl [Alachlor]", 100),
]

molecule CCc1cccc(CC)c1N(COC)C(C)=O [norchloro-alachlor] , percent cross-reactivity observed: 22

Summary for this molecule, CCc1cccc(CC)c1N(COC)C(=O)C[S+](C)[O-] (stereo not drawn) [sulfoxide analog] : percent cross-reactivity is 15

Consider "CCc1cccc(CC)c1N(COC)C(=O)CSC" . Its measured percent cross-reactivity is 188

So, CCc1cccc(CC)c1N(COC)C(=O)CSCC(=O)O [thioacetic acid conjugate of alachlor] ? Its percent cross-reactivity was 57.0

Query CCc1cccc(CC)c1N(COC)C(=O)CSCC(NC(=O)CCC(N)C(=O)O)C(=O)NCC(=O)O (stereo not drawn) [glutathione conjugate of alachlor] yields percent cross-reactivity of 27.5
